Sourced from patent US11415579B2

# target under test: Cdk2(H71C) (C177A) (Homo sapiens, UniProt P24941, C177A/H71C)
# Construct: poly-histidine; made in house; host or cells: E. coli
# measurement protocol: Kinetic thiol consumption assay with Cdk2 mutant H71C
# Format: binding
# test parameters: Protein: Cdk2; cysteine position H71C; additional mutation C177A; in h^-1
Checkbox rule: Rate constant with Cdk2 H71C lower than 0.02 = satisfied; Rate constant with Cdk2 H71C not lower than 0.02 = not satisfied.

compound: C=CC(=O)Nc1ccc(C(=O)NC2CCCC2)cc1
target under test: Cdk2(H71C) (C177A) (Homo sapiens, UniProt P24941, C177A/H71C)
assigned label: not satisfied

compound: C=CC(=O)N(Cc1ccco1)Cc1ccco1
target under test: Cdk2(H71C) (C177A) (Homo sapiens, UniProt P24941, C177A/H71C)
assigned label: not satisfied

compound: C=CC(=O)N1CCC(c2nc3ccccc3[nH]2)CC1
target under test: Cdk2(H71C) (C177A) (Homo sapiens, UniProt P24941, C177A/H71C)
assigned label: satisfied

compound: C=CC(=O)N1CCN(c2ccccc2C(N)=O)CC1
target under test: Cdk2(H71C) (C177A) (Homo sapiens, UniProt P24941, C177A/H71C)
assigned label: satisfied

compound: C=CC(=O)NCc1ccccc1
target under test: Cdk2(H71C) (C177A) (Homo sapiens, UniProt P24941, C177A/H71C)
assigned label: satisfied

compound: C=CC(=O)Nc1nc2c(s1)CCCCCC2
target under test: Cdk2(H71C) (C177A) (Homo sapiens, UniProt P24941, C177A/H71C)
assigned label: not satisfied

compound: C=CC(=O)N1CCC2(CC1)NC(=O)C1(CCCCC1)N2
target under test: Cdk2(H71C) (C177A) (Homo sapiens, UniProt P24941, C177A/H71C)
assigned label: satisfied

compound: CC1CN(C(=O)CCl)CC(C)O1 (stereo not drawn)
target under test: Cdk2(H71C) (C177A) (Homo sapiens, UniProt P24941, C177A/H71C)
assigned label: satisfied

compound: C=CC(=O)N1CCCCCC1c1cccs1 (stereo not drawn)
target under test: Cdk2(H71C) (C177A) (Homo sapiens, UniProt P24941, C177A/H71C)
assigned label: satisfied

compound: C=CC(=O)N1CC2(CCC2)c2c(F)cccc21
target under test: Cdk2(H71C) (C177A) (Homo sapiens, UniProt P24941, C177A/H71C)
assigned label: not satisfied

compound: C=CC(=O)N1CCN(C(=O)OC(C)(C)C)CC1
target under test: Cdk2(H71C) (C177A) (Homo sapiens, UniProt P24941, C177A/H71C)
assigned label: satisfied

compound: C=CC(=O)NCCN1CCOCC1
target under test: Cdk2(H71C) (C177A) (Homo sapiens, UniProt P24941, C177A/H71C)
assigned label: satisfied

compound: O=S1(=O)C=CC(Br)C1 (stereo not drawn)
target under test: Cdk2(H71C) (C177A) (Homo sapiens, UniProt P24941, C177A/H71C)
assigned label: not satisfied

compound: C=CC(=O)N1CCn2c(C(=O)NC3CC3)ccc2C1C (stereo not drawn)
target under test: Cdk2(H71C) (C177A) (Homo sapiens, UniProt P24941, C177A/H71C)
assigned label: not satisfied

compound: C=CC(=O)Nc1nc2ccccc2n1CCc1ccccn1
target under test: Cdk2(H71C) (C177A) (Homo sapiens, UniProt P24941, C177A/H71C)
assigned label: not satisfied

compound: C=CC(=O)N1CCc2sccc2C1c1cccs1 (stereo not drawn)
target under test: Cdk2(H71C) (C177A) (Homo sapiens, UniProt P24941, C177A/H71C)
assigned label: not satisfied

compound: C=CC(=O)NCc1ccc(OC)cc1
target under test: Cdk2(H71C) (C177A) (Homo sapiens, UniProt P24941, C177A/H71C)
assigned label: satisfied

compound: C=CC(=O)N(Cc1ccco1)Cc1cc2cc(C)ccc2o1
target under test: Cdk2(H71C) (C177A) (Homo sapiens, UniProt P24941, C177A/H71C)
assigned label: not satisfied

compound: C=CC(=O)N1CCN(Cc2ccc(Cl)cc2)CC1
target under test: Cdk2(H71C) (C177A) (Homo sapiens, UniProt P24941, C177A/H71C)
assigned label: satisfied

compound: C=CC(=O)NCC1CCCN1S(=O)(=O)c1ccc(C)cc1 (stereo not drawn)
target under test: Cdk2(H71C) (C177A) (Homo sapiens, UniProt P24941, C177A/H71C)
assigned label: satisfied

compound: C=CC(=O)N1CC(OCc2cccc3ccccc23)C1
target under test: Cdk2(H71C) (C177A) (Homo sapiens, UniProt P24941, C177A/H71C)
assigned label: not satisfied

compound: C=CC(=O)N1C(C(=O)c2ccccc2)C1c1ccccc1 (stereo not drawn)
target under test: Cdk2(H71C) (C177A) (Homo sapiens, UniProt P24941, C177A/H71C)
assigned label: satisfied

compound: C=CC(=O)Nc1ccccc1C#N
target under test: Cdk2(H71C) (C177A) (Homo sapiens, UniProt P24941, C177A/H71C)
assigned label: not satisfied

compound: C=CC(=O)N1CCCc2sccc2C1
target under test: Cdk2(H71C) (C177A) (Homo sapiens, UniProt P24941, C177A/H71C)
assigned label: not satisfied

compound: C=CC(=O)NCCNC(=O)c1ccccc1
target under test: Cdk2(H71C) (C177A) (Homo sapiens, UniProt P24941, C177A/H71C)
assigned label: satisfied

compound: C=CC(=O)N(C1CC1)C1CCCCC1C1CCCCC1 (stereo not drawn)
target under test: Cdk2(H71C) (C177A) (Homo sapiens, UniProt P24941, C177A/H71C)
assigned label: satisfied

compound: C=CC(=O)N1CCN(C(=O)OCC)CC1c1cccs1 (stereo not drawn)
target under test: Cdk2(H71C) (C177A) (Homo sapiens, UniProt P24941, C177A/H71C)
assigned label: not satisfied

compound: C=CC(=O)N1CCn2cccc2C1c1ccccc1 (stereo not drawn)
target under test: Cdk2(H71C) (C177A) (Homo sapiens, UniProt P24941, C177A/H71C)
assigned label: not satisfied

compound: C=CC(=O)Nc1cccc(C(F)(F)F)c1 [EL-1007]
target under test: Cdk2(H71C) (C177A) (Homo sapiens, UniProt P24941, C177A/H71C)
assigned label: satisfied

compound: C=CC(=O)Nc1cccc(C(F)(F)F)c1 [BN-80]
target under test: Cdk2(H71C) (C177A) (Homo sapiens, UniProt P24941, C177A/H71C)
assigned label: satisfied

compound: C=CC(=O)NC(C)c1cc(OC)c(OC)c(OC)c1 (stereo not drawn)
target under test: Cdk2(H71C) (C177A) (Homo sapiens, UniProt P24941, C177A/H71C)
assigned label: satisfied

compound: C=CC(=O)Nc1ccc(-c2ncccn2)cc1
target under test: Cdk2(H71C) (C177A) (Homo sapiens, UniProt P24941, C177A/H71C)
assigned label: not satisfied
